This collection of values is drawn from paper PMC13376213.

Target: T1, USP33 zf-UBP domain, tag cleaved (for FP) (human, UniProt Q8TEY7 1-942)
T1 chain: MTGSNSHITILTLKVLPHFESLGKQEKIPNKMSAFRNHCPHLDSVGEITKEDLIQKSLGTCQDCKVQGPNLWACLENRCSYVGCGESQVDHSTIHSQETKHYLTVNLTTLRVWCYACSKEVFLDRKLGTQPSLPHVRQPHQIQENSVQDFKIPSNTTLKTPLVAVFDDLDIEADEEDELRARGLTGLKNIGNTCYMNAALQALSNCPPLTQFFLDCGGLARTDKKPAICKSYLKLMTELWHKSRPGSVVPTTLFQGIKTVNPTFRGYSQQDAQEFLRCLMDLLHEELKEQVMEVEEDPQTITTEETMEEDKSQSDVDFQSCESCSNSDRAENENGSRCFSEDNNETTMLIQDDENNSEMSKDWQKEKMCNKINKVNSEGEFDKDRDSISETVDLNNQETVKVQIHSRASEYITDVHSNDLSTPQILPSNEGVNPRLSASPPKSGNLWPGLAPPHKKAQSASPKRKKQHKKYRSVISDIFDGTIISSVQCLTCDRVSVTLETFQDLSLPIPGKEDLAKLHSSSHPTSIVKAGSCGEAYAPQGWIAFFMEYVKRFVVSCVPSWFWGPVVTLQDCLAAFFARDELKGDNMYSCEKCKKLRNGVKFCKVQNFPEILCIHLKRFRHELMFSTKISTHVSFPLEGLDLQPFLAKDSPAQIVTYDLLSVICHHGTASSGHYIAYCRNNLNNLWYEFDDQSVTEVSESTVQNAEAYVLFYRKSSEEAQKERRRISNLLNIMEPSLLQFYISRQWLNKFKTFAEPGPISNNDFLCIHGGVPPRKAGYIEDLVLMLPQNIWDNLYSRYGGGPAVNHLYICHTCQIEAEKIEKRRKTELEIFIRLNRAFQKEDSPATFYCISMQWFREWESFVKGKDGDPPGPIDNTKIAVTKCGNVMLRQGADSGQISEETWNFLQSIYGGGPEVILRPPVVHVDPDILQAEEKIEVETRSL
Test: FP
measuredQuantity: Kd (µM)

P. Ac-TNSSGKMALNSPQPG-NH2 [IRAG1 302-316]
Q. Ac-LQPSSKASLESTSDL-NH2 [CEP192 2073-2087]
R. Ac-PFQPGRMALESQSPG-NH2 [USP19 874-888]
Request: Quick one: which order do the items above go in by Kd, smallest to largest? // list labels; follow requested order
Response: P, Q, R
